# Test system: UO-31 renal
# test: NCI tumour cell line growth inhibition, 48 h; in the data active = GI50 below about 0.43 µM; inactive = the rest
Labels: active, inactive

{"compound": "CC1=C2[C@@H](CC1)[C@]1(C)O[C@@](C(C)C)(C[C@H]1OC(=O)CO)[C@H]2OC(=O)C1CC1c1ccccc1 (stereo partly specified)", "label-value": "inactive"}
{"compound": "CCC(C)Nc1ccc(N)cc1 (stereo unspecified)", "label-value": "inactive"}
{"compound": "CCN(CC)CCCNc1cc(OC)cc2nc3cc(Cl)ccc3nc12", "label-value": "inactive"}
{"compound": "COc1ccc(CN2c3ccccc3Sc3ccccc32)c(C(F)(F)F)c1", "label-value": "inactive"}
{"compound": "COc1cc(/C=C/C(=O)/C=C/c2ccc(-n3ccnc3C)cc2)ccc1O", "label-value": "inactive"}
{"compound": "CC1C(C)N(C(=O)CCl)c2ccccc2N1C(=O)CCl (stereo unspecified)", "label-value": "active"}
